# assay_remarks: qHTS assay to identify small molecule agonists of the sonic hedgehog signaling (Shh) pathway - cell viability counter screen (AID 1259366); further: nearly all actives have a fitted effect of over 50% in size; further: potency means the concentration at half of the fitted maximal effect
# condition_info: NIH/3T3 Gli1-Luc viability, CellTiter-Fluor, 24 h; series mostly up to 92.4 µM
Inconclusive results are not listed. Calls of active or inactive are those of the source. The call rests on the fitted dose curve; in most records, active means well fitted cell-killing curve with a large enough effect in the repeat runs; inconclusive means weak or mixed curves, or effect the other way; inactive means flat fitted curve, though single readings scatter.
outcome_measure: Potency

Sample records with Potency:
Which Potency is reported for this compound? CCC(C)(C)c1ccc(O)cc1
inactive

Param item = CCCCCCCCCCCOC(=O)c1ccccc1C(=O)OCCCCCCCCCCC ; retrieve measured Potency.
inactive

What does the data say about its Potency? Entry: O=S(=O)(Oc1ccc(Cl)cc1)c1ccc(Cl)cc1
inactive

Reported Potency for Cc1cc(Cl)ccc1OCCCC(=O)O : what is it?
inactive

Can you look up the measured Potency of CCN(CC)N=O for me?
inactive

Now, please, on to the next compound.
Dear colleague, I am looking for the recorded Potency of the following compound: c1cc(OCC2CO2)ccc1Cc1ccc(OCC2CO2)cc1 (stereo unspecified)
27.3 µM (active)
